# assay-target: HLA-A*11:01
# protocol-summary: IEDB peptide-MHC binding, purified MHC/competitive/fluorescence; filed as Kd, often an IC50 or EC50 that approximates it; bounds were set here for any values at or beyond the usual limits of such assays
# condition-summary: source organism: Cryptosporidium parvum Iowa II
pKd: −log10 of the molar value.
test-readout: pKd

Q: Provide only the value of recorded pKd for TVFRNQNRV
Result: ≤ 5.30

====

# assay-target: HLA-B*83:01
# protocol-summary: IEDB peptide-MHC binding, purified MHC/competitive/fluorescence; filed as Kd, often an IC50 or EC50 that approximates it; bounds were set here for any values at or beyond the usual limits of such assays
# condition-summary: source organism: Mycobacterium tuberculosis variant bovis BCG str. Pasteur 1173P2
test-readout: pKd
In textbook form, pKd equals minus log to base ten of the concentration in mol/L.

Q: Provide only the value of recorded pKd for RPRVAQLTF
Result: 5.70

Attribution: the Immune Epitope Database (IEDB)
